solubility at 24 h values for the compounds below.
# Protocol description: Solubility of the compound in PBS buffer at pH 6.5 measured after 24 hrs by LC-MS/MS analysis
# Format: physicochemical
Expressed in µg/mL, but write only the number.

CC[C@@H](NC(=O)c1cn(-c2c(F)cccc2F)c2nc(N3C[C@@H](O)CC3=O)ccc2c1=O)C(F)(F)F ... 2.9
O=C(N[C@@H](C1CC1)C(F)(F)F)c1cn(-c2c(F)cc(F)cc2F)c2nc(N3C[C@@H](O)[C@H](O)C3)ccc2c1=O ... 12.5

Entry CC[C@H](NC(=O)c1cn(-c2c(F)cc(F)cc2F)c2nc(N3C[C@@H](O)CC3=O)ccc2c1=O)C(F)(F)F — recorded solubility at 24 h = 0.4

Entry CC[C@@H](NC(=O)c1cn(-c2ccccc2F)c2nc(N3C[C@@H](O)CC3=O)ccc2c1=O)C(F)(F)F — recorded solubility at 24 h = 1.1

----------
# Protocol description: Oral bioavailability in Wistar rat at 1 mg/kg by LC-MS analysis
# Format: ADME, organism-based
# Measurement context: in vivo
Measured quantity: bioavailability (%)
Expressed in %, but write only the number.

// worked examples, bioavailability included
CC[C@@H](NC(=O)c1cn(-c2ccc(F)cc2F)c2nc(N3C[C@@H](O)CC3=O)ccc2c1=O)C(F)(F)F ... 29
O=C(N[C@@H](C1CC1)C(F)(F)F)c1cn(-c2c(F)cc(F)cc2F)c2nc(N3C[C@@H](O)[C@H](O)C3)ccc2c1=O ... 19
CC[C@H](NC(=O)c1cn(-c2c(F)cc(F)cc2F)c2nc(N3C[C@@H](O)CC3=O)ccc2c1=O)C(F)(F)F ... 91
CCC(NC(=O)c1cn(-c2c(F)cc(F)cc2F)c2nc(N3C[C@@H](O)[C@H](O)C3)ccc2c1=O)C(F)(F)C(F)(F)F (single isomer, unassigned; diastereomer 1) ... 22
CC[C@@H](NC(=O)c1cn(-c2c(F)cccc2F)c2nc(N3C[C@@H](O)CC3=O)ccc2c1=O)C(F)(F)F ... 29
CCC(NC(=O)c1cn(-c2c(F)cc(F)cc2F)c2nc(N3C[C@@H](O)[C@H](O)C3)c(F)cc2c1=O)C(F)(F)C(F)(F)F (single isomer, unassigned; diastereomer 1) ... 48

Next, consider the following molecule.
Entry CC(NC(=O)c1cn(-c2c(F)cc(F)cc2F)c2nc(N3C[C@@H](O)[C@H](O)C3)ccc2c1=O)C(F)(F)C(F)(F)F (single isomer, unassigned; diastereomer 1) — recorded bioavailability = 21

----------
half-life values for the compounds below.
# Protocol description: Half-life in Wistar rat at 0.3 mg/kg, iv administered as bolus dose by LC-MS analysis
# Type: ADME, organism-based
# Measurement context: in vivo
Expressed in h, but write only the number.

// worked examples, half-life included
CC[C@H](NC(=O)c1cn(-c2c(F)cc(F)cc2F)c2nc(N3C[C@@H](O)[C@H](O)C3)ccc2c1=O)C(F)(F)F ... 1.6
CC[C@@H](NC(=O)c1cn(-c2c(F)cc(F)cc2F)c2nc(N3C[C@@H](O)CC3=O)ccc2c1=O)C(F)(F)F ... 0.9
CC[C@H](NC(=O)c1cn(-c2c(F)cc(F)cc2F)c2nc(N3C[C@@H](O)CC3=O)ccc2c1=O)C(F)(F)F ... 3.4

Entry CC[C@@H](NC(=O)c1cn(-c2ccc(F)cc2F)c2nc(N3C[C@@H](O)CC3=O)ccc2c1=O)C(F)(F)F — recorded half-life = 0.8

Reference source: ChEMBL document CHEMBL6083268
